// abundance fitness lookup, one value per entry
B1: Poly(rC)-binding protein 1, residues 278 to 350; numbered along this chain, Q15365 (parent)
chain: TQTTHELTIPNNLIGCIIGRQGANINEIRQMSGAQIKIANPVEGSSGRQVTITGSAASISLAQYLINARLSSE

variants of: B1; test: abundance fitness (aPCA) (normalised: wild type 0, dead -1); higher = more abundant; growth selection in yeast, the domain comes from the species named; settings: Homo sapiens
Reply: number alone, nothing else.

# annotated cases, reported abundance fitness shown
In [3]: df
Out[3]:
   sequence_variant          parameter  reported_value
0               Q2G  abundance fitness           0.031
1              P41E  abundance fitness          -0.012

Consider the variant shown here: `I38F` What is its recorded abundance fitness?
-0.301

// query abundance fitness value for entry `G15L`
-0.465

Which abundance fitness is listed for `N11E` ?
-0.045

Bench note: what abundance fitness did `E43R` show?
-0.061

Can you look up the measured abundance fitness of `L7Q` for me?
-0.382
